// inhibition at 10 µM lookup, one value per entry
# Tested on: Hut78 T lymphocytic leukemia cells
# method notes: In vitro anti-proliferative effect, CCK-8 method, Hut78
# Type: cell-based
# experimental context: Homo sapiens, HuT78; 10 μM; read-out: Hut-78 (inhibition %)
recorded metric: inhibition at 10 µM (%)

>  <mol smiles>
COc1cccc2c(Nc3ccc(C(=O)Nc4ccccc4N)cc3)ncnc12

>  <value reported>
10.8

$$$$
>  <mol smiles>
CC(=O)Nc1ccc2ncnc(NCc3ccc(C(=O)Nc4ccccc4N)cc3)c2c1

>  <value reported>
16.4

$$$$
>  <mol smiles>
COc1ccc2ncnc(Nc3ccc(C(=O)Nc4cc(F)ccc4N)cc3)c2c1

>  <value reported>
15.5

$$$$
>  <mol smiles>
Nc1ccc(F)cc1NC(=O)c1ccc(Nc2ncnc3ccccc23)cc1

>  <value reported>
18.2

$$$$
>  <mol smiles>
Nc1ccc(F)cc1NC(=O)c1ccc(Nc2ncnc3c(F)cccc23)cc1

>  <value reported>
22

$$$$
>  <mol smiles>
Nc1ccccc1NC(=O)c1ccc(Nc2ncnc3ccc([N+](=O)[O-])cc23)cc1

>  <value reported>
28.5

$$$$
>  <mol smiles>
CS(=O)(=O)CCNCc1ccc(-c2ccc3ncnc(Nc4ccc(C(=O)Nc5cc(F)ccc5N)cc4)c3c2)o1

>  <value reported>
44.4

$$$$
>  <mol smiles>
Nc1ccccc1NC(=O)c1ccc(Nc2ncnc3ccccc23)cc1

>  <value reported>
36

$$$$
>  <mol smiles>
CS(=O)(=O)CCNCc1ccc(-c2ccc3ncnc(Nc4ccc(C(=O)Nc5ccccc5N)cc4)c3c2)o1

>  <value reported>
43

$$$$
>  <mol smiles>
Nc1cnccc1NC(=O)c1ccc(CNc2ncnc3ccccc23)cc1

>  <value reported>
79.6

$$$$
>  <mol smiles>
COc1cc2ncnc(NCc3ccc(C(=O)Nc4cc(-c5cccs5)ccc4N)cc3)c2cc1OC

>  <value reported>
28.2

$$$$
>  <mol smiles>
COc1cc2ncnc(Nc3ccc(C(=O)Nc4cc(-c5cccs5)ccc4N)cc3)c2cc1OC

>  <value reported>
59.9

$$$$
>  <mol smiles>
Nc1ccccc1NC(=O)c1ccc(Nc2ncnc3cc(F)ccc23)cc1

>  <value reported>
19.8

$$$$
>  <mol smiles>
COc1cc2ncnc(Nc3ccc(C(=O)Nc4cc(F)ccc4N)cc3)c2cc1OCCCN1CCOCC1

>  <value reported>
39.9

$$$$
>  <mol smiles>
COc1ccc2ncnc(Nc3ccc(C(=O)Nc4ccccc4N)cc3)c2c1

>  <value reported>
15

$$$$
>  <mol smiles>
COC(=O)Cc1ccc2ncnc(Nc3ccc(C(=O)Nc4ccccc4N)cc3)c2c1

>  <value reported>
42.3

$$$$
>  <mol smiles>
COc1cc2ncnc(Nc3ccc(C(=O)Nc4cc(-c5ccco5)ccc4N)cc3)c2cc1OC

>  <value reported>
18.1

$$$$

---

# Test system: HDACs
# method notes: In vitro inhibition of HDACs (HDAC Inhibitor Drug Screening Kit, Biovision K340-100)
# Type: biochemical
# experimental context: 40 μM
param class (str): category from Inhibition percentage (%) towards HDACs; see ranges class 1: < 10%; class 2: ≥ 10% and < 20%; class 3: ≥ 20%

>  <molecule>
CC(=O)Nc1ccc2ncnc(NCc3ccc(C(=O)Nc4cc(-c5ccco5)ccc4N)cc3)c2c1

>  <class name>
class 2

$$$$
>  <molecule>
Nc1ccccc1NC(=O)c1ccc(CNc2ncnc3ccc([N+](=O)[O-])cc23)cc1

>  <class name>
class 3

$$$$
>  <molecule>
Nc1ccccc1NC(=O)c1ccc(CNC(=O)OCc2cccnc2)cc1 [MS-275, reference compound]

>  <class name>
class 3

$$$$
>  <molecule>
COc1cc2ncnc(NCc3ccc(C(=O)Nc4cc(-c5cccs5)ccc4N)cc3)c2cc1OC

>  <class name>
class 1

$$$$
>  <molecule>
COc1ccc2ncnc(Nc3ccc(C(=O)Nc4cc(F)ccc4N)cc3)c2c1

>  <class name>
class 3

$$$$
>  <molecule>
Nc1ccccc1NC(=O)c1ccc(Nc2ncnc3ccc(F)cc23)cc1

>  <class name>
class 2

$$$$
>  <molecule>
COCCOc1cc2ncnc(NCc3ccc(C(=O)Nc4ccncc4N)cc3)c2cc1OCCOC

>  <class name>
class 3

$$$$
>  <molecule>
COc1cc2ncnc(Nc3ccc(C(=O)Nc4cc(-c5cccs5)ccc4N)cc3)c2cc1OC

>  <class name>
class 2

$$$$
>  <molecule>
Nc1ccccc1NC(=O)c1ccc(Nc2ncnc3ccc([N+](=O)[O-])cc23)cc1

>  <class name>
class 1

$$$$
>  <molecule>
Nc1cnccc1NC(=O)c1ccc(Nc2ncnc3ccccc23)cc1

>  <class name>
class 2

$$$$
>  <molecule>
COc1cccc2c(Nc3ccc(C(=O)Nc4ccccc4N)cc3)ncnc12

>  <class name>
class 1

$$$$
>  <molecule>
Nc1ccc(F)cc1NC(=O)c1ccc(Nc2ncnc3ccccc23)cc1

>  <class name>
class 1

$$$$
>  <molecule>
COc1cccc2ncnc(Nc3ccc(C(=O)Nc4ccncc4N)cc3)c12

>  <class name>
class 1

$$$$
>  <molecule>
COc1cccc2c(Nc3ccc(C(=O)Nc4cc(F)ccc4N)cc3)ncnc12

>  <class name>
class 2

$$$$
>  <molecule>
COc1cc2ncnc(Nc3ccc(C(=O)Nc4ccccc4N)cc3)c2cc1OCCCN1CCOCC1

>  <class name>
class 3

$$$$
>  <molecule>
COCCOc1cc2ncnc(Nc3ccc(C(=O)Nc4ccccc4N)cc3)c2cc1OCCOC

>  <class name>
class 2

$$$$
>  <molecule>
COc1ccc2ncnc(Nc3ccc(C(=O)Nc4ccccc4N)cc3)c2c1

>  <class name>
class 1

$$$$
>  <molecule>
Nc1ccccc1NC(=O)c1ccc(CNc2ncnc3ccccc23)cc1

>  <class name>
class 3

$$$$
>  <molecule>
Nc1ccc(F)cc1NC(=O)c1ccc(Nc2ncnc3c(F)cccc23)cc1

>  <class name>
class 3

$$$$
>  <molecule>
COc1ccc2ncnc(NCc3ccc(C(=O)Nc4ccccc4N)cc3)c2c1

>  <class name>
class 3

$$$$
>  <molecule>
Nc1cnccc1NC(=O)c1ccc(CNc2ncnc3ccccc23)cc1

>  <class name>
class 2

$$$$
>  <molecule>
CS(=O)(=O)CCNCc1ccc(-c2ccc3ncnc(Nc4ccc(C(=O)Nc5cc(F)ccc5N)cc4)c3c2)o1

>  <class name>
class 3

$$$$
>  <molecule>
COc1cc2ncnc(Nc3ccc(C(=O)Nc4cc(F)ccc4N)cc3)c2cc1OCCCN1CCOCC1

>  <class name>
class 3

$$$$
>  <molecule>
Nc1ccccc1NC(=O)c1ccc(Nc2ncnc3ccccc23)cc1

>  <class name>
class 1

$$$$
>  <molecule>
Nc1ccc(F)cc1NC(=O)c1ccc(CNc2ncnc3ccccc23)cc1

>  <class name>
class 1

$$$$
>  <molecule>
COc1cc2ncnc(NCc3ccc(C(=O)Nc4ccncc4N)cc3)c2cc1OCCCN1CCOCC1

>  <class name>
class 2

$$$$
>  <molecule>
COc1cc2ncnc(Nc3ccc(C(=O)Nc4cc(-c5ccccc5)ccc4N)cc3)c2cc1OC

>  <class name>
class 3

$$$$
>  <molecule>
COc1cccc2ncnc(Nc3ccc(C(=O)Nc4ccccc4N)cc3)c12

>  <class name>
class 1

$$$$
>  <molecule>
CS(=O)(=O)CCNCc1ccc(-c2ccc3ncnc(Nc4ccc(C(=O)Nc5ccccc5N)cc4)c3c2)o1

>  <class name>
class 3

$$$$
